Molecular target: T1, recombinant human activated Factor VII (FVIIa) (human, UniProt P08709 61-212; P08709 213-466, ten glutamate residues of the Gla domain may be gamma-carboxylated)
T1 construct: chains tethered by a disulfide bond; also called Factor VIIa; rFVIIa
T1 sequence 1: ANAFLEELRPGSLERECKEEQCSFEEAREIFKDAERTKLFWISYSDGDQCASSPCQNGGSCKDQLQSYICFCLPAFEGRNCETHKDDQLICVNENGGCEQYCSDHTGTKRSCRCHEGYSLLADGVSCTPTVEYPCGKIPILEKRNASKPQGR
T1 sequence 2: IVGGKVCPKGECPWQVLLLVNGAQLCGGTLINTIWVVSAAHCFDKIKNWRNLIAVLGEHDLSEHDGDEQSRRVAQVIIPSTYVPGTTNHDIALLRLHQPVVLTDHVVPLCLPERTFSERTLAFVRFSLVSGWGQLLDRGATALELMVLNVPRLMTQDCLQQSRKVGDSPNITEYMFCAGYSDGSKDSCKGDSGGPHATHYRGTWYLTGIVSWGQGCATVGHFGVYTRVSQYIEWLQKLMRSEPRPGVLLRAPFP
Experiment: BLI (Fortebio)
MEASUREMENT_KIND: Kd (nM)
Write it as a number; the unit nM goes unstated.

// solved cases for Kd follow
INSERT INTO measurements (binder, value_observed) VALUES
  ('VH SEQ ID NO 314 / VL SEQ ID NO 382 (antibody, IgG4, V domains shown, humanized 11F2; IgG4 S228P/kappa) VH: QVQLQESGPGLVEPSDTLSLTCAVSGYSISSDSAWSWIRQPPGKGLEWIGYIQYSGSTNYNPSLKSRVTMSVDTSKNQFSLKLSSVTALDTAVYYCARSVNYYGNSFAVGPWGQGTLVTVSS VL: EIVLTQSPATLSLSPGERATLSCRASQGLSDYLHWYQQKPGEAPRLLIKYASQPATGIPARFSGSGSGTDFTLTISSLEPEDFAVYYCQNGHSFPLTFGQGTKLEIK', 27),
  ('VH SEQ ID NO 642 / VL SEQ ID NO 326 (antibody, IgG4, V domains shown, humanized 11F2; IgG4 S228P/kappa) VH: QVQLQESGPGLVKPSQTLSLTCTVSGYSISSDSAWSWIRQPPGKGLEWIGYIYYSGSTNYNPSLKSRVTISVDTSKNQFSLKLSSVTAADTAVYYCARSVNYYGNSFAVGYWGQGTSVTVSS VL: EIVLTQSPATLSLSPGERATLSCRASQGISDYLHWYQQKPGEAPRLLIKYTSQPATGIPARFSGSGSGTDFTLTISSLEPEDFGVYYCQNGHSFPLTFGAGTKLELK', 23);

Problem: I have this binder here, VH SEQ ID NO 522 / VL SEQ ID NO 414 (antibody, IgG4, V domains shown, humanized 11F2; IgG4 S228P/kappa) VH: QVQLQESGPGLVEPSQTLSLTCTVSGYSISSDSAWSWIRQPPGKGLEWIGYIQYSGSTNYNPSLKSRVTISRDTSKNQFSLKLSSVTAADTAVYYCARSVNYYGNSFAVGPWGQGTLVTVSS VL: EIVLTQSPATLSLSPGERATLSCRASQGVSDYLAWYQQKPGQAPRLLIKYASQPATGIPARFSGSGSGTDFTLTISSLEPEDFAVYYCQNGHSFPLTFGQGTKLEIK , and I need its recorded Kd.
Solution: 31

// provenance: patent US20220064329A1
